Hello, the source for this data is ChEMBL document CHEMBL1201862, in case you need it.

# Test system: UACC-62
# PROCEDURE_TEXT: NCI tumour cell line growth inhibition, 48 h
Active and inactive are the calls of the source. Rule as the data show it: active = GI50 up to about 1.1 µM and inactive = higher.
RESULT_TYPE: GI50

INSERT INTO measurements (compound, observed_result) VALUES
  ('NCCCc1c(-c2ccccc2)[nH]c(N)nc1=O', '> 100 µM (inactive)'),
  ('O=C(CSc1nc(-c2ccccc2)c(-c2ccccc2)[nH]1)N/N=C/c1ccc(O)cc1', '22.1 µM (inactive)'),
  ('Cc1nc2c(cc1OCc1ccccc1)C(=O)C1=C(C2=O)C2OC(=O)CC2OC1(C)C (centres undefined)', '0.174 µM (active)'),
  ('C=C[C@@]1(C)CC[C@@H]2[C@@]3(C1)O[C@H]3CC1[C@](C)(C(=O)OC)CCC[C@@]12C (some centres undefined)', '27 µM (inactive)'),
  ('Cc1cccc(Nc2nc(NNC(=O)Cc3ccccc3)nc(NNC(=O)c3ccncc3)n2)c1', '> 10 µM (inactive)'),
  ('CCOC(=O)C1C(c2ccc(Cl)cc2Cl)NC(c2ccc(C)cc2)C(C(=O)OC)S1(=O)=O (centres undefined)', '53.1 µM (inactive)'),
  ('CCNC(=S)Nc1c(C#N)c2n(c1C(=O)OCC)CCCCC2', '> 100 µM (inactive)'),
  ('CN(C)CCNC(=O)c1ccc2nc3c(nc2c1)C(=O)c1ccccc1-3', '46.5 µM (inactive)');

Please state, for each entry, its recorded GI50.
1. Cn1cnc([N+](=O)[O-])c1SC1=NCCS1
2. N#Cc1cccc2c1Nc1ccccc1S2
3. CCCCCC#CCOC(=O)C(=[N+]=[N-])P(=O)(c1ccccc1)c1ccccc1
4. CCOC(=O)CCC(C(=O)OCC)n1nnc2cc(Nc3c(C)[n+]([O-])c4cc(Cl)ccc4[n+]3[O-])ccc21 (centres undefined)
5. CC(=O)N(C(C)=O)n1c(-c2ccccc2)n[nH]c1=O
6. CCOC(=O)/C(C(=O)Nc1ccc(Cl)cc1)=C(/N)N1CCCC1
7. CCOC(=O)c1c(N2CCCC2)[nH]c(=O)c(C(c2ccc(Cl)c([N+](=O)[O-])c2)c2c(O)c(C(=O)OCC)c(N3CCCC3)[nH]c2=O)c1O
8. OC12CC3c4ccccc4NC3C3Oc4cccc5c4C31CCN(CC1CC1)C2C5 (centres undefined)

Key:
["51.2 µM (inactive)", "60.7 µM (inactive)", "> 10 µM (inactive)", "55.7 µM (inactive)", "> 100 µM (inactive)", "42 µM (inactive)", "26.8 µM (inactive)", "18.4 µM (inactive)"]

Can you give me GI50 for all of these, one by one?
1. N=C(N)N/N=C/c1c(-c2ccc([N+](=O)[O-])cc2)nc2sc(Cl)cn12
2. C=C(C)[C@H]1CC(=O)/C(C)=C\CC/C(C)=C/CC[C@@]2(C)O[C@@H]2C1

Key:
["1.6 µM (inactive)", "8.47 µM (inactive)"]

Required: GI50, one value per compound below.
1. CC(=O)OC(C(=O)O)C(OC(C)=O)C(OC(C)=O)C(OC(C)=O)C(=O)O (centres undefined)
2. Nc1nc(NCC2(CO)CC2)cc(=O)[nH]1

Key:
1. > 100 µM (inactive)
2. > 100 µM (inactive)

Look up GI50 for the entries below, preserving their order.
1. O=Cc1cc(C(=O)OCc2ccccc2)n(S(=O)(=O)c2ccccc2)c1
2. Cc1c(OCc2ccccc2)c(=O)ccn1CCc1c[nH]c2ccccc12

Key:
["11 µM (inactive)", "27.4 µM (inactive)"]

For every listed record, write down its GI50.
1. COc1ccc(-c2cc(=O)c3c(OC)cccc3o2)c(OC)c1OC
2. COc1ccc(C[C@H]2COC(=O)[C@@H]2Cc2cc(OC)c(OC)c(OC)c2)cc1OC

Key:
> 100 µM (inactive)
72.1 µM (inactive)

Quick batch: GI50 for everything below.
1. COc1ccc([C@H]2CC(=O)N3CCCC3N2)cc1 (some centres undefined)
2. CC1(C)CC2C(/C1=N/O)C1(C)CCCC2(C)C1O (centres undefined)
3. COc1cc2cccc(/N=C/c3c(Br)ccc(OC)c3OC(C)C)c2cc1OC
4. O=C(CSc1ncccn1)N/N=C/c1ccccc1OCc1ccccc1
5. O=C(OCc1ccccc1)N1N=NC2C1C1CC(OCc3ccccc3)(OCc3ccccc3)C2O1 (centres undefined)
6. CC1=C/C(=N\N(C)C)C(C(O)(C(F)(F)F)C(F)(F)F)C(C)(C)C1 (centres undefined)

Key:
> 100 µM (inactive)
> 100 µM (inactive)
45.7 µM (inactive)
20.9 µM (inactive)
> 100 µM (inactive)
> 100 µM (inactive)

Consider the following items and state reported GI50 for each.
1. CCOP(=O)(Nc1ccccc1P(=O)(OCC)OCC)OCC
2. OC1(c2ccccc2)c2ccccc2N=C2NCCN21 (centres undefined)
3. CC(C)(C)c1ccc2c(c1)C#Cc1cc3c(cc1OCCCO2)C#Cc1cc(C(C)(C)C)ccc1OCCCO3
4. Cc1nc2c(n1C(C)(C)C)C(=O)c1ccccc1C2=O

Key:
> 100 µM (inactive)
51.4 µM (inactive)
> 100 µM (inactive)
44.3 µM (inactive)
